B1: glmS ribozyme (parent)
chain: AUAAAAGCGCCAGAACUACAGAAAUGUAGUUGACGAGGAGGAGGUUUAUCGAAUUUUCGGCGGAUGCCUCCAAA

Variants of: B1
Test: self-cleavage kobs at 40 uM GlcN6P; higher = faster cleavage; RNA array
Settings: with glucosamine-6-phosphate
Fewer inactive variants are shown than the library holds.
Recorded measurements of self-cleavage kobs at 40 uM GlcN6P, one per entry

See these solved cases before continuing.
AUAAAAGCGCCCGCACUACAGAAAUGUAGUUGACGAGGAGGAGGUUUAUCGAAUUUUCGGCGGAUGCCUUCAAA; < 1e-05 s⁻¹
AUAAAAGCGCCAGAACUACAGAAAUGUAGUUGACGAGGAGUAGGUUUAUCGAAUUUUCGGCUGAUGCCUCCAAA; < 1e-05 s⁻¹
AUAAAAGCGCCAGAACUACAGAAAUGUAGUGGACGAGGAGGCGGUUUAUCGAAUUUUCGGCGGAUGCCUUCAAA; < 1e-05 s⁻¹
AUAAAAGCGCCAGAACUACAGAAAUGUAGUUGACGACGAGGCGGUUUAUCGAAUUUUCGGCGGAUGCCUCGAAA; < 1e-05 s⁻¹
AUAAAAGCGCCAGAACUACAGAAAUGUAGUUGACGAGGAGGAGGUUUAGAGAAUUUUCGGCGGAUGCCUCCAAA; < 1e-05 s⁻¹

Now for a further variant.
Hello, please tell me recorded self-cleavage kobs at 40 uM GlcN6P for this one: `AUAAAAGCGCCAGAACUACAGAAAUGUAGUUAACGAGGAGGAGGUUUAUCGUAUUUUCGGCGGAUGCCUCAAAA`
< 1e-05 s⁻¹
